- Test system: EC-GI-10 (Esophageal Squamous Cell Carcinoma)
- measurement-notes: Bliss excess, mean over the matrix (fraction); higher = more synergy;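 further: after 72 h of two-drug dosing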
Record form. Attribute: Bliss excess. Fill in for each entry.
Give bare numbers.

Would you please look over these solved cases?
Cc1nc(Nc2ncc(C(=O)Nc3c(C)cccc3Cl)s2)cc(N2CCN(CCO)CC2)n1 [Dasatinib] + CC(=O)Nc1cccc(-n2c(=O)n(C3CC3)c(=O)c3c(Nc4ccc(I)cc4F)n(C)c(=O)c(C)c32)c1 [Trametinib] (first compound max 2 µM, 7x7, partner max 1 µM) ... -0.0871
CN(CCO)CC[C@H](CSc1ccccc1)Nc1ccc(S(=O)(=O)NC(=O)c2ccc(N3CCC([C@@H](O)c4ccccc4-c4ccc(Cl)cc4)CC3)cc2)cc1S(=O)(=O)C(F)(F)F [AZD4320] + C[C@@H]1COCCN1C2=NC(=NC(=C2)C3(CC3)[S@](=N)(=O)C)C4=C5C=CNC5=NC=C4 [AZD6738] (first compound max 1 µM, 7x7, partner max 10 µM) ... -0.0341

Lab note: need Bliss excess with EC-GI-10 (Esophageal Squamous Cell Carcinoma) for entry C[C@@H](c1ccc2nccn2c1)n1nnc2ncc(-c3cnn(C)c3)nc21 [Savolitinib] + CC1(C)CCC(CN2CCN(c3ccc(C(=O)NS(=O)(=O)c4ccc(NCC5CCOCC5)c([N+](=O)[O-])c4)c(Oc4cnc5[nH]ccc5c4)c3)CC2)=C(c2ccc(Cl)cc2)C1 [Venetoclax] (first compound max 1 µM, 7x7, partner max 1 µM) , please look it up.
-0.0547

====

Record form. Attribute: Bliss excess. Fill in for each entry.
- Tested on: OVCA420 (Ovarian Carcinoma)
- measurement-notes: Bliss excess, mean over the matrix (fraction); higher = more synergy
Give bare numbers.

Would you please look over these solved cases?
COc1nnc2ccc(N3CCC(c4ccc(OCCN5CCN(C)C(=O)[C@H]5C)cc4)CC3)nn12 [AZD5153] + CC1(C)CCC(CN2CCN(c3ccc(C(=O)NS(=O)(=O)c4ccc(NCC5CCOCC5)c([N+](=O)[O-])c4)c(Oc4cnc5[nH]ccc5c4)c3)CC2)=C(c2ccc(Cl)cc2)C1 [Venetoclax] (first compound max 1 µM, 7x7, partner max 1 µM) ... -0.0527
CC1(C)CCC(CN2CCN(c3ccc(C(=O)NS(=O)(=O)c4ccc(NCC5CCOCC5)c([N+](=O)[O-])c4)c(Oc4cnc5[nH]ccc5c4)c3)CC2)=C(c2ccc(Cl)cc2)C1 [Venetoclax] + CCN(CCO)CCCOc1ccc2c(Nc3cc(CC(=O)Nc4cccc(F)c4)[nH]n3)ncnc2c1 [AZD2811] (first compound max 1 µM, 7x7, partner max 1 µM) ... -0.0114
Cc1cc2ncnn2cc1Nc1ncc2c(n1)n(C1CCOCC1)c(=O)n2C [AZD7648] + O=C(c1cc(Cc2n[nH]c(=O)c3ccccc23)ccc1F)N1CCN(C(=O)C2CC2)CC1 [Olaparib] (first compound max 10 µM, 7x7, partner max 10 µM) ... -0.035

Which Bliss excess is listed for Cc1cc2ncnn2cc1Nc1ncc2c(n1)n(C1CCOCC1)c(=O)n2C [AZD7648] + C=CCn1c(=O)c2cnc(Nc3ccc(N4CCN(C)CC4)cc3)nc2n1-c1cccc(C(C)(C)O)n1 [AZD1775] (first compound max 10 µM, partner max 1 µM) ?
-0.0186

====

- System: UM-UC-3 (Bladder Carcinoma)
- measurement-notes: Bliss excess, mean over the matrix (fraction); higher = more synergy
Record form. Attribute: Bliss excess. Fill in for each entry.

O=C(c1cc(Cc2n[nH]c(=O)c3ccccc23)ccc1F)N1CCN(C(=O)C2CC2)CC1 [Olaparib] + COc1nnc2ccc(N3CCC(c4ccc(OCCN5CCN(C)C(=O)[C@H]5C)cc4)CC3)nn12 [AZD5153] (first compound max 10 µM, 7x7, partner max 1 µM) ... -0.0014
COc1cccc(OCCCN)c1-c1cc(Nc2cnc(C#N)cn2)n[nH]1 [Prexasertib] + CCc1c2c(nc3ccc(O)cc13)-c1cc3c(c(=O)n1C2)COC(=O)[C@]3(O)CC [SN-38] (first compound max 1 µM, 7x7, partner max 0.3 µM) ... 0.0017

Please go through the list and note Bliss excess for each compound.
1. COc1nnc2ccc(N3CCC(c4ccc(OCCN5CCN(C)C(=O)[C@H]5C)cc4)CC3)nn12 [AZD5153] + Cc1c2c(nn1C)CSCc1cc(n(C)n1)CSc1cc(c3ccccc3c1)OCCCc1c(C(=O)O)n(C)c3c-2c(Cl)ccc13 [AZD5991] (first compound max 1 µM, 7x7, partner max 1 µM)
2. NC1(C(=O)N[C@@H](CCO)c2ccc(Cl)cc2)CCN(c2ncnc3[nH]ccc23)CC1 [Capivasertib] + CC(C)n1c(=O)n(C)c2cnc3cc(F)c(-c4ccc(OCCCN5CCCCC5)nc4)cc3c21 [AZD1390] (first compound max 10 µM, 7x7, partner max 0.3 µM)
3. CC1(C)CCC(CN2CCN(c3ccc(C(=O)NS(=O)(=O)c4ccc(NCC5CCOCC5)c([N+](=O)[O-])c4)c(Oc4cnc5[nH]ccc5c4)c3)CC2)=C(c2ccc(Cl)cc2)C1 [Venetoclax] + Cn1cnc2c(F)c(Nc3ccc(Br)cc3Cl)c(C(=O)NOCCO)cc21 [Selumetinib] (first compound max 1 µM, 7x7, partner max 3 µM)
4. O=C(c1cc(Cc2n[nH]c(=O)c3ccccc23)ccc1F)N1CCN(C(=O)C2CC2)CC1 [Olaparib] + Cc1c2c(nn1C)CSCc1cc(n(C)n1)CSc1cc(c3ccccc3c1)OCCCc1c(C(=O)O)n(C)c3c-2c(Cl)ccc13 [AZD5991] (first compound max 10 µM, 7x7, partner max 1 µM)

0.0031
-0.0211
-0.0445
-0.0182

Which Bliss excess is listed for C[C@@H]1COCCN1c1cc(C2([S@](C)(=N)=O)CC2)nc(-c2ccnc3[nH]ccc23)n1 [AZD6738] + C1CC(C1)(C(=O)[O-])C(=O)[O-].N.N.[Pt+2] [Carboplatin] (first compound max 10 µM, 7x7, partner max 10 µM) ?
-0.0213
